The measured values listed here are drawn from paper PMC13499490.

So I've got a bunch of molecules here, and I need their CC50 at 48 h values.
Assay: Host cell cytotoxicity in infected U2OS cells
Type: cell-based
Conditions: human
One number for each entry, in µM.

>>> print(df.to_string())
                                   molecule  units_text  value_observed
0  COc1ccccc1Nc1nc(NCC2CCCO2)c2ccccc2n1 (centres unmarked) [Compound 39G]          µM              33

# context switch: different molecule, same CC50 at 48 h
State its CC50 at 48 h: Fc1ccccc1Nc1nc(NCC2CCCO2)c2ccccc2n1 (centres unmarked) [Compound 39H]
84

====

System: T. cruzi epimastigotes (DM28c)
Assay: Epimastigote proliferation, SYBR Green assay
Type: cell-based, Trypanosoma cruzi
Details: Trypanosoma cruzi, 72 h, read-out: EC50 epimastigote proliferation
READOUT TYPE: EC50 (µM)
Give bare numbers, in µM.

In [3]: df
Out[3]:
                                   compound  value_observed
0  Fc1ccccc1Nc1nc(NCC2CCCO2)c2ccccc2n1 (centres unmarked) [Compound 39H]             4.8

For the next question, use this compound.
Print T. cruzi epimastigotes (DM28c) EC50 for COc1ccccc1Nc1nc(NCC2CCCO2)c2ccccc2n1 (centres unmarked) [Compound 39G] .
2.8
